Value source: patent US20260297085A1

- studyTarget: human JAK1 kinase domain (JH1) (Homo sapiens, UniProt P23458)
- Construct: recombinantly generated catalytic kinase (also known as JH1) domain of human JAK1, JAK2, JAK3 and TYK2
- Sequence (P23458 875-1153 limits assumed): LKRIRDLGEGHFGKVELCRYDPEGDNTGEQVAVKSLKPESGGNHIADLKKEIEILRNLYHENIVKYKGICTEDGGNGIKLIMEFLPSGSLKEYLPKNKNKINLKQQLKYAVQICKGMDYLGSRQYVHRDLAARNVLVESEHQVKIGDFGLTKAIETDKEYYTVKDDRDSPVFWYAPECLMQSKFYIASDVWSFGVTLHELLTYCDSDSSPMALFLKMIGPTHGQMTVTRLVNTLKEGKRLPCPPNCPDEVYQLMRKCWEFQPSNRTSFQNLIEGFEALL
- protocolText: JH1 biochemical assay for JAK1 (ADP-Glo kinase assay, recombinant JH1 catalytic domain, JAK3-342 peptide, 35 μM ATP)
- measurementConditions: JH1 kinase domain, ADP-Glo
Structures can show the parent of a compound that is named as a salt.
quantityKind: IC50

Completed entries (count: 3):
compound: C[C@@H]1CN(c2nccn3nc(-c4cnn(C)c4)cc23)C(=O)[C@]1(C#N)C1CC1
measuredValue: > 10000 nM
--
compound: C[C@@H]1CN(c2ccnn3cc(-c4cnn(C(F)F)c4)cc23)C(=O)[C@]1(C#N)C1CC1
measuredValue: 100 to 1000 nM
--
compound: C[C@@H]1CN(c2ccnn3cc(-c4cnc(C(F)F)s4)cc23)C(=O)[C@]1(C#N)C1CC1 [Example 101, trifluoroacetate]
measuredValue: 100 to 1000 nM

C[C@@H]1CN(c2nc(-c3cnn4c3COCC4)cn3ncc(F)c23)C(=O)[C@]1(C#N)C1CC1 has a reported IC50 of < 100 nM
